Data origin: the supplement of paper PMC10126150

- Tested on: ATP;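 also: ATP exposure 15 min at 22 °C before imaging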
- Assay Name: switch fluorescence ratio, 500 uM ATP over buffer (Cy3 cluster intensity, sum of 5 cycles each) (fold (ratio)); higher = stronger signal-on switching upon ATP binding; sequences stand for … in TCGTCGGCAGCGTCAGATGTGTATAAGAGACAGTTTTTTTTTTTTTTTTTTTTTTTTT…TC
- Setup Conditions: aptamer strand: ATP DNA aptamer (quencher-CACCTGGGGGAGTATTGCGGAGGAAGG + anchor), 100 nM annealed; ATP concentration: 500 uM
Measured Metric: switch fluorescence ratio

>>> obs_value("TTATGGAAGT")
0.989
>>> obs_value("CGGTTTTGAG")
1.01
>>> obs_value("GATCGAAAGG")
0.966
>>> obs_value("TGAGGGATGG")
1.01
>>> obs_value("GACCGAGGGG")
0.989
>>> obs_value("AACGGGAATT")
1.04
>>> obs_value("GCCGGGGCCT")
1.03
>>> obs_value("CATGGAGCGA")
1.24
>>> obs_value("GGTGAAGGGG")
1.15
>>> obs_value("TATATTCTTT")
1
>>> obs_value("CTAGGGGGTG")
1.03
>>> obs_value("GTGAGAGGTG")
1.05
>>> obs_value("CTTTTGGGCG")
1.01
>>> obs_value("TTGGACGCCG")
1.07
>>> obs_value("GAGAAAAGTG")
1.03
>>> obs_value("AGTAGGTAGT")
0.968
>>> obs_value("TCATTTGGGG")
0.975
>>> obs_value("TTTTCCCGGG")
1.13
>>> obs_value("TTGTCCTAGT")
1.01
>>> obs_value("ATTGCGCCCG")
1.03
>>> obs_value("AAGCCGGAGC")
1.02
>>> obs_value("TGGGTAAAGT")
0.971
>>> obs_value("GGTATTCAGC")
0.957
>>> obs_value("GATCGCTATC")
2.91
>>> obs_value("TTCAGGGGGC")
1.02
>>> obs_value("TAGAATGGCC")
1.01
>>> obs_value("CGGGATGGTT")
0.97
>>> obs_value("AAGTCGACGT")
1.03

----------
- System: ATP;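 also: ATP exposure 15 min at 22 °C before imaging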
- Assay Name: switch fluorescence ratio, 500 uM ATP over buffer (Cy3 cluster intensity, sum of 5 cycles each) (fold (ratio)); higher = stronger signal-on switching upon ATP binding; sequences stand for … in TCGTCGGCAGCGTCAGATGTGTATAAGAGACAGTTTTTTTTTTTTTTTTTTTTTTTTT…TC
- Setup Conditions: aptamer strand: ATP DNA aptamer (quencher-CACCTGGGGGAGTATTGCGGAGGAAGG + anchor), 100 nM annealed; ATP concentration: 500 uM
List of switch fluorescence ratio values.
Measured Metric: switch fluorescence ratio

>>> obs_value("TTTTAGATGG")
1.2
>>> obs_value("TGGACGAGAG")
1.01
>>> obs_value("AAGAGTGCGG")
0.974
>>> obs_value("GTTTTTGCGG")
0.978

----------
- Tested on: ATP;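 also: ATP exposure 15 min at 22 °C before imaging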
- Assay Name: switch fluorescence ratio, 500 uM ATP over buffer (Cy3 cluster intensity, sum of 5 cycles each) (fold (ratio)); higher = stronger signal-on switching upon ATP binding; sequences stand for … in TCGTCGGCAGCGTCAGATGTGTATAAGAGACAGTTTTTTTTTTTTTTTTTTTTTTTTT…TC
- Setup Conditions: aptamer strand: ATP DNA aptamer (quencher-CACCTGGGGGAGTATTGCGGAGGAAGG + anchor), 100 nM annealed; ATP concentration: 500 uM
Returns label 1 if the recorded switch fluorescence ratio is greater than or equal to 1, and label 0 otherwise.

>>> label_value("GGGTATGAGC")
"label 0"
>>> label_value("CGTAGTATAG")
"label 1"
>>> label_value("TGATCGCTTT")
"label 1"

----------
List of switch fluorescence ratio values.
- Test system: ATP;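 also: ATP exposure 15 min at 22 °C before imaging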
- Assay Name: switch fluorescence ratio, 500 uM ATP over buffer (Cy3 cluster intensity, sum of 5 cycles each) (fold (ratio)); higher = stronger signal-on switching upon ATP binding; sequences stand for … in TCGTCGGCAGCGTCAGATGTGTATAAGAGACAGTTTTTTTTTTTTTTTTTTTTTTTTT…TC
- Setup Conditions: aptamer strand: ATP DNA aptamer (quencher-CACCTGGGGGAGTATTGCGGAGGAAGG + anchor), 100 nM annealed; ATP concentration: 500 uM
Measured Metric: switch fluorescence ratio

>>> obs_value("GAGGGGTGCA")
0.992
>>> obs_value("CCATTCATTT")
0.991
>>> obs_value("ATTCTGTAAT")
1.01
>>> obs_value("TAAAGGGAAT")
1.02
>>> obs_value("GAGGTTTGGC")
0.988
>>> obs_value("CATAGAATTT")
0.978
>>> obs_value("TTGTTTAATA")
1.02
>>> obs_value("ATGTATGGGC")
0.981
>>> obs_value("CTGATATGCG")
0.997
>>> obs_value("CACTTAGGGG")
1.01
>>> obs_value("CGGAGACGGT")
0.996
>>> obs_value("TTGGGGAAGA")
1.02
>>> obs_value("TTATGTCGAA")
0.98
>>> obs_value("TGAGAGTGGG")
1.01
>>> obs_value("CTTCTAGAT")
0.989
>>> obs_value("ATATTGGGGG")
0.998
>>> obs_value("CAGTACTGGT")
0.994
>>> obs_value("ATCTGGGGTA")
0.972
>>> obs_value("ATTATTTGTC")
1.01
>>> obs_value("AAAGCGGATT")
1
>>> obs_value("GCGGTCCACG")
1.02
>>> obs_value("TAAAGAAGTG")
1.01
>>> obs_value("CGAGTGGGGT")
1.01
>>> obs_value("AGTTTCGCTC")
0.987
>>> obs_value("CTGAAGGCCC")
1.02
>>> obs_value("GGGATGAAGA")
1
>>> obs_value("TTTTTATGC")
0.975
>>> obs_value("TTTTTAGTAT")
1.01
>>> obs_value("CTAGTTTGGA")
1
>>> obs_value("GGTTTAAACT")
0.987
>>> obs_value("AAAGTCGCGC")
1.01
>>> obs_value("ACCGGCCAGC")
1
>>> obs_value("GTGAGTAAGG")
0.978
>>> obs_value("CTGGCCGTTT")
1.02
>>> obs_value("TTGGTTTAAG")
1
>>> obs_value("CAACATCTCG")
0.993
>>> obs_value("ATTGAAAAAT")
0.983
>>> obs_value("TTGGGATGTT")
0.99
>>> obs_value("ATGGGGTT")
0.992
>>> obs_value("ATGGTAGTAT")
0.986
>>> obs_value("GTTAGTTTGC")
1.01
>>> obs_value("TTTACAGCTT")
0.987
>>> obs_value("GAAGCCGGGG")
0.984
>>> obs_value("GTTGATTTTA")
0.972
>>> obs_value("GTGGGGAGGG")
1
>>> obs_value("GGTATCCGGG")
0.974
>>> obs_value("CCTGGGGGGA")
1.02
>>> obs_value("GGAGTTTAAA")
0.999
>>> obs_value("GCGTGAGGCG")
1.01
>>> obs_value("AAAACTTTGC")
1.02
>>> obs_value("ACGTTTGCG")
0.98
>>> obs_value("AGTGAGGTTG")
0.977
>>> obs_value("TGTTTATAAT")
0.99
>>> obs_value("TTTTGTTTCG")
1.01
>>> obs_value("AGTTTAGTGA")
0.996

----------
List of switch fluorescence ratio values.
- Test system: ATP;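 also: ATP exposure 15 min at 22 °C before imaging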
- Assay Name: switch fluorescence ratio, 500 uM ATP over buffer (Cy3 cluster intensity, sum of 5 cycles each) (fold (ratio)); higher = stronger signal-on switching upon ATP binding; sequences stand for … in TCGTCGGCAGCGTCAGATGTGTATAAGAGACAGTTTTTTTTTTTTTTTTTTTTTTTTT…TC
- Setup Conditions: aptamer strand: ATP DNA aptamer (quencher-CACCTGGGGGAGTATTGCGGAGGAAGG + anchor), 100 nM annealed; ATP concentration: 500 uM
Measured Metric: switch fluorescence ratio

>>> obs_value("GAAGTCCGGG")
0.987
>>> obs_value("CTACAATGGA")
1
>>> obs_value("ATTATGGTTA")
0.988
>>> obs_value("GTGTTATCGC")
1.01
>>> obs_value("TTTTTGCCTA")
1.02
>>> obs_value("GAGTTTAGTT")
0.989
>>> obs_value("GCTTTCCAGA")
0.995
>>> obs_value("TTTACGGGGG")
1
>>> obs_value("TTAAGTGTGA")
0.982
>>> obs_value("AAGTGGGGGT")
1
>>> obs_value("ATCATGCGGG")
0.997

----------
- Test system: ATP;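 also: ATP exposure 15 min at 22 °C before imaging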
- Assay Name: switch fluorescence ratio, 500 uM ATP over buffer (Cy3 cluster intensity, sum of 5 cycles each) (fold (ratio)); higher = stronger signal-on switching upon ATP binding; sequences stand for … in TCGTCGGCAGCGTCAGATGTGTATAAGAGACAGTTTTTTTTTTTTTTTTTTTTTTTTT…TC
- Setup Conditions: aptamer strand: ATP DNA aptamer (quencher-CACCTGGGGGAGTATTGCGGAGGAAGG + anchor), 100 nM annealed; ATP concentration: 500 uM
Measured Metric: switch fluorescence ratio

>>> obs_value("TGAGATCGCG")
1
>>> obs_value("TGGTGGGGGG")
0.997
>>> obs_value("GTAGTTTTGC")
1.03
>>> obs_value("GCTTCTCACA")
0.981
>>> obs_value("CGGGAGGGTT")
1
>>> obs_value("ATTTTAAGTT")
0.99
>>> obs_value("TAAGGGCGGA")
1.01
>>> obs_value("AGGTAAATGG")
1.02
>>> obs_value("GATGTATATG")
0.992
>>> obs_value("TAAAGCTGCT")
0.97
>>> obs_value("GATCGATTG")
1.05
>>> obs_value("GGGGTTATCT")
1.01
>>> obs_value("ATCCCAGGTA")
2.01
